Assay: Cytotoxicity against human HeLa cells
Format: cell-based
Settings: read-out: TC50 (the source's name)
PROPERTY_MEASURED: CC50

The compound `C[C@@H](NC(=O)c1cccc(-c2c[nH]c(-c3cc4ccccc4cn3)n2)c1)c1ccc(F)cc1` showed CC50 equal to > 100 µM

----------
System: Coxsackievirus B3
Experiment: Antiviral activity against Human coxsackievirus B3 harboring nonstructural protein 3A H57Y mutant infected in african green monkey Vero cells assessed as inhibition of virus-induced cytopathic effect after 3 days by plaque assay
Assay type: functional, organism-based
Settings: Enterovirus B, 72 h
Please go through the items and note down their EC50.
Answers are plain numbers, in µM.

Illustrative cases are given below, each with its answer.
>>> readout_value("CC(C)S(=O)(=O)n1c(N)nc2ccc(/C(=N/O)c3ccccc3)cc21")
1.7
>>> readout_value("C[C@@H](NC(=O)c1cccc(-c2cnc(-c3cc4ccccc4cn3)[nH]2)c1)c1ccc(F)cc1")
15.3

Continue with the compound presented below.
The compound Fc1cccc(F)c1C1SCc2nc3cc(C(F)(F)F)ccc3n21 (stereo not drawn) showed EC50 equal to 3.4

----------
Assay: Antiviral activity against Human rhinovirus 42 infected in african green monkey Vero cells assessed as inhibition of virus-induced cytopathic effect after 3 days by MTS-based CPE reduction assay
Assay type: functional, cell-based
Conditions: Rhinovirus B, 72 h
PROPERTY_MEASURED: EC50 (nM)
One number for each entry, in nM.

The compound `CC(C)S(=O)(=O)n1c(N)nc2ccc(/C(=N/O)c3ccccc3)cc21` showed EC50 equal to 110
